# credit: patent EP0808325B1

study target: GR complex
procedure text: modulation of [35S]TBPS binding in rat cerebral cortex P2 homogenate
Design: species or system Sprague-Dawley rats
condition info: concentration of compounds to inhibit 50% of control [35S]TBPS binding; 2 nM [35S]TBPS, 25°C, 90 minutes; unit inferred; sodium salt
Description: We performed several experiments to determine the nature of the modulation of [^35S]TBPS as affected by the compounds of the invention. These procedures were performed as follows: Brains from male Sprague-Dawley rats were removed immediately following sacrifice and the cerebral cortices dissected over ice. […] Briefly, the cortices were gently homogenized in 0.32 M sucrose followed by centrifugation at 1000 x g for 10 minutes. The supernatant was collected and centrifuged at 9000 x g for 20 minutes. […]
Examples of compounds with documented IC50 follow.
Express your answer in nM, writing the number without its unit.

Here are 2 compounds together with their reported answers.
compound | value
C[C@]12CC[C@](O)(C(F)(F)F)C[C@H]1CC[C@@H]1[C@@H]2CC[C@]2(C)[C@@H](C(=O)COC(=O)CCC(=O)[O-])CC[C@@H]12.[Na+] [sodium salt] | 712
C[C@]12CC[C@@H](O)C[C@@H]1CC[C@@H]1[C@@H]2CC[C@]2(C)[C@@H](C(=O)COC(=O)CCC(=O)[O-])CC[C@@H]12.[Na+] [sodium salt] | 251

Query string: Lab request: please report IC50 under test system GR complex for C[C@@]1(O)CC[C@@]2(C)[C@@H](CC[C@@H]3[C@@H]2CC[C@]2(C)[C@@H](C(=O)COC(=O)CCC(=O)[O-])CC[C@@H]32)C1.[Na+] [sodium salt]
Result string: 211
